Provenance of the data: the supplement of paper PMC7840683

test system: HepaRG; assay: LDH release cytotoxicity, % of total lysis control; higher = more cytotoxic; details: 31.6228 µM; 48 h
measurement_label: LDH release cytotoxicity (%)
Numbers only, in %.

Check out these entries, answers already filled in.
{"compound": "CCCCCCCCCCCCc1ccc(S(=O)(=O)O)cc1 [Dodecylbenzenesulfonic acid]", "unit_descriptor": "%", "LDH release cytotoxicity": -1.64}
{"compound": "CCOP(=S)(OCC)Oc1nc(Cl)n(C(C)C)n1 [Isazofos]", "unit_descriptor": "%", "LDH release cytotoxicity": -3.67}
{"compound": "CN(C)c1nc(=O)n(C2CCCCC2)c(=O)n1C [Hexazinone]", "unit_descriptor": "%", "LDH release cytotoxicity": -1.37}
{"compound": "CCC12COCN1COC2 [7a-Ethyldihydro-1H,3H,5H-oxazolo(3,4-c)oxazole]", "unit_descriptor": "%", "LDH release cytotoxicity": 0.0307}
{"compound": "OC(Cn1cncn1)(Cn1cncn1)c1ccc(F)cc1F [Fluconazole]", "unit_descriptor": "%", "LDH release cytotoxicity": 0.241}

Each of the following entries comes with a recorded value; kindly state LDH release cytotoxicity for each.
1. O=[N+]([O-])c1cc(C(F)(F)F)c(Cl)c([N+](=O)[O-])c1Nc1ncc(C(F)(F)F)cc1Cl [Fluazinam]
2. COCCOCCOCCOC [Triethylene glycol dimethyl ether]

9.87
-2.47

###

test system: HepaRG; assay: LDH release cytotoxicity, % of total lysis control; higher = more cytotoxic; conditions: 31.6228 µM; 48 h
measurement_label: LDH release cytotoxicity (%)
One number for each entry, in %.

{"molecule": "CNC(C)=O [N-Methylacetamide]", "measurement_label": "LDH release cytotoxicity", "unit_descriptor": "%", "observed": -2.47}

Your task in this section: give LDH release cytotoxicity for each listed record.
1. C[Si]1(C)O[Si](C)(C)O[Si](C)(C)O[Si](C)(C)O1
2. CC[C@H](C)[C@@H](C(=O)O)n1sc2ccccc2c1=O
3. Cc1cc(C)c(O)c(C)c1
4. O=C1c2c(O)cccc2Cc2cccc(O)c21
5. CCOC(=O)NCCOc1ccc(Oc2ccccc2)cc1
6. CC(C)(OOC(C)(C)c1ccccc1)c1ccccc1 [Dicumyl peroxide]
7. CN(C)c1ccc(C(=C2C=CC(=[N+](C)C)C=C2)c2ccc(N(C)C)cc2)cc1
8. CC(=O)C(C)=CC1C(C)=CCCC1(C)C (configuration not stated)

[-1.36, -1.34, 0.116, -0.933, -2.64, -0.756, 51.8, -0.46]

###

system: HepaRG; experiment: LDH release cytotoxicity, % of total lysis control; higher = more cytotoxic; conditions: 31.6228 µM; 48 h
Please go through the items and note down their LDH release cytotoxicity.
One number for each entry, in %.

{"compound": "COc1ccc(C)cc1N", "measured_target": "HepaRG", "LDH release cytotoxicity / %": -2.55}
{"compound": "O=C1OC(c2ccc(O)cc2)(c2ccc(O)cc2)c2ccccc21", "measured_target": "HepaRG", "LDH release cytotoxicity / %": 0.57}
{"compound": "OC(c1ccc(Cl)cc1)(c1cncnc1)c1ccccc1Cl (stereo not drawn)", "measured_target": "HepaRG", "LDH release cytotoxicity / %": 2.21}

Please give LDH release cytotoxicity for each item listed below.
1. C1CNCCN1
2. CN1COCN(Cc2cnc(Cl)s2)C1=N[N+](=O)[O-]

1: -6.14; 2: -1.01

###

tested on: HepaRG; experiment: LDH release cytotoxicity, % of total lysis control; higher = more cytotoxic; conditions: 10 µM; 48 h
measurement_label: LDH release cytotoxicity (%)
Numbers only, in %.

Answer for every listed entry: what is its LDH release cytotoxicity? The entries follow.
1. CC(=O)NC1(c2cccc(F)c2)CCN(CCC2(c3ccc(Cl)c(Cl)c3)CN(c3ccccc3)C(=O)CO2)CC1 (centres undefined)
2. CCCCCCCCCCCC[N+](C)(C)C [Dodecyltrimethylammonium chloride]
3. c1ccc2c(c1)Cc1ccccc1-2 [Fluorene]

1. -0.38
2. -0.28
3. -1.05

Give HepaRG LDH release cytotoxicity for O=C(O)C(F)(F)C(F)(F)C(F)(F)C(F)(F)C(F)(F)C(F)(F)F [Perfluoroheptanoic acid]
-2.95

###

Kindly state LDH release cytotoxicity for each of the entries shown.
tested on: HepaRG; test: LDH release cytotoxicity, % of total lysis control; higher = more cytotoxic; details: 10 µM; 48 h
Numbers only, in %.

{"compound": "O=C(O)c1cc(Oc2ccc(C(F)(F)F)cc2Cl)ccc1[N+](=O)[O-]", "LDH release cytotoxicity [%]": -0.0876}
{"compound": "CCCCOC(=O)CCCCCCCCC(=O)OCCCC [Dibutyl decanedioate]", "LDH release cytotoxicity [%]": -1.92}
{"compound": "CCC(C)c1ccccc1O (centres undefined)", "LDH release cytotoxicity [%]": -1.71}
{"compound": "N#Cc1c[nH]cc1-c1cccc2c1OC(F)(F)O2", "LDH release cytotoxicity [%]": 0.919}

Please state, for each entry, its recorded LDH release cytotoxicity.
1. c1ccc(N=Nc2ccccc2)cc1
2. Nc1c(Cl)c(Cl)nc(C(=O)O)c1Cl
3. COCC(C)O (centres undefined)
4. CC(C)Nc1nc(Cl)nc(NC(C)C)n1
5. CCOC(=O)C(C)(C)Oc1ccc(Cl)cc1 [Clofibrate]
6. CCCCN(CC)c1c([N+](=O)[O-])cc(C(F)(F)F)cc1[N+](=O)[O-]

1. 0.0427
2. -2.73
3. -0.197
4. -0.398
5. -0.987
6. -1.12

###

tested on: HepaRG; assay: LDH release cytotoxicity, % of total lysis control; higher = more cytotoxic; conditions: 31.6228 µM; 48 h
measurement_label: LDH release cytotoxicity (%)
Answers are plain numbers, in %.

{"compound_structure": "CCCCCCC(C=O)=Cc1ccccc1", "measured_target": "HepaRG", "LDH release cytotoxicity / %": -0.688}
{"compound_structure": "COC(=O)c1c(Cl)c(Cl)c(C(=O)OC)c(Cl)c1Cl", "measured_target": "HepaRG", "LDH release cytotoxicity / %": -0.208}
{"compound_structure": "CCNc1nc(Cl)nc(NC(C)(C)C)n1", "measured_target": "HepaRG", "LDH release cytotoxicity / %": -0.271}
{"compound_structure": "Cc1ccc([N+](=O)[O-])cc1N", "measured_target": "HepaRG", "LDH release cytotoxicity / %": -0.792}

Shifting focus to the compound that follows.
Give the measured LDH release cytotoxicity of Cc1ccc2ncccc2c1 .
6.32

###

tested on: HepaRG; experiment: LDH release cytotoxicity, % of total lysis control; higher = more cytotoxic; details: 50 µM; 48 h
measurement_label: LDH release cytotoxicity (%)
Give bare numbers, in %.

Examples with answers:
{"molecule": "S=C([S-])NCCNC(=S)[S-].S=C([S-])NCCNC(=S)[S-].[Mn+2].[Zn+2]", "LDH release cytotoxicity, %": 77.1}
{"molecule": "CC(C)(O)C(=O)Nc1ccc([N+](=O)[O-])c(C(F)(F)F)c1 [Hydroxyflutamide]", "LDH release cytotoxicity, %": 2.46}
{"molecule": "Oc1ccc2c(c1)OCC(N1CCC(O)(c3ccc(F)cc3)CC1)C2O (stereo unspecified)", "LDH release cytotoxicity, %": 0.322}
{"molecule": "Cc1ccc(C(C)C)cc1", "LDH release cytotoxicity, %": 0.041}
{"molecule": "CCCCC(CC)COC(=O)c1ccccc1C(=O)OCC(CC)CCCC (stereo unspecified) [Di(2-ethylhexyl) phthalate]", "LDH release cytotoxicity, %": -0.778}

Read the next record carefully.
Which LDH release cytotoxicity is listed for CCOc1nc(F)cc2nc(S(=O)(=O)Nc3c(Cl)cccc3Cl)nn12 ?
-3.63

###

Would you mind telling me the reported LDH release cytotoxicity of each entry?
tested on: HepaRG; assay: LDH release cytotoxicity, % of total lysis control; higher = more cytotoxic; conditions: 0.3162278 µM; 48 h
Numbers only, in %.

{"compound": "O=C(O)C(F)(F)C(F)(F)C(F)(F)C(F)(F)C(F)(F)C(F)(F)C(F)(F)C(F)(F)F", "measurement_label": "LDH release cytotoxicity", "unit_descriptor": "%", "observed": -1.12}
{"compound": "O=[N+]([O-])c1ccc(Cl)cc1", "measurement_label": "LDH release cytotoxicity", "unit_descriptor": "%", "observed": 0.037}
{"compound": "CN1COCN(Cc2cnc(Cl)s2)C1=N[N+](=O)[O-]", "measurement_label": "LDH release cytotoxicity", "unit_descriptor": "%", "observed": -0.0609}

Below are some compounds; for each one, tell me its LDH release cytotoxicity.
1. CCC(=O)OC1CCC2C3CCC4=CC(=O)CCC4(C)C3CCC12C (stereo not given) [Testosterone propionate]
2. Nc1ccc(-c2ccc(N)cc2)cc1

[-1.1, -3.09]

###

Field: LDH release cytotoxicity. Provide a value for each of the compounds that follow.
system: HepaRG; test: LDH release cytotoxicity, % of total lysis control; higher = more cytotoxic; details: 1 µM; 48 h
Give bare numbers, in %.

{"compound": "CCCC(=O)O [Butanoic acid]", "observed": -1.47}

# map each compound to its LDH release cytotoxicity
1. O=[N+]([O-])C(CO)(CO)CO [2-(Hydroxymethyl)-2-nitro-1,3-propanediol]
2. CCCCCOC(=O)c1ccccc1C(=O)OCCCCC [Dipentyl phthalate]
3. c1ccc2ccccc2c1 [Naphthalene]
4. CC(=O)c1ccccc1 [Acetophenone]
5. CCc1nn(C)c(C(=O)NCc2ccc(C(C)(C)C)cc2)c1Cl [Tebufenpyrad]
6. COCc1cnc(C2=NC(C)(C(C)C)C(=O)N2)c(C(=O)O)c1 (stereo unspecified) [Imazamox]
7. CC(C)CC(C)(O)C#CC(C)(O)CC(C)C (stereo unspecified) [2,4,7,9-Tetramethyl-5-decyne-4,7-diol]

-0.843
-0.0572
-0.532
-2
5.74
-1.73
-1.4
